Attribution: patent US20240124857A1

- assayProcedure: pH profile of enzymes on 1 mM ATP
- Format: biochemical
- details: 50 mM trisodium citrate/citric acid, 5 mM CaCl2, relative to the highest value
endpointLabel: Relative activity on ATP, pH 6.5
Format: numeric value only, no unit, no commentary.

CRC25082: Acid phosphatase (Class A), accession WP_050460978.1, SEQ ID NO:19 (protein, listed as Herbaspirillum autotrophicum) KGAAGFLNGQTAPDSLAILPPPPAEDSVAFQADKAQYETGHVLRDPERVEQARQDADYRNFGHAFSAAFGMEISATHTPVLYQLLTEVLQDSHDYAMKAAKNHYKRVRPFVVYKDPTCTPGQDEKMALSGSYPSGHASFGWAAALVLAEINPARQTEILQRGYAFGKSRVICGAHWQSDVDNGQLMGAAVVAALHSNSQFAAALNAAKNEFAGLRAQDNKK
0.8
CRC25100: Acid phosphatase (Class A), internal database, SEQ ID NO:24 (protein, environmental sample) GENSGFLSPETSPNSLEILPPPPSEGSIAFLNDKANYDIGHTLKNEGRLAQAVSDANYKNLTDAFSKAFGETISEQNTPALYSLLQNVLQDSHDFAMRAAKDHYKRVRPFVIYKDHTCTPAEDTKMAKTGSYPSGHASFGWATALVLSEINPARETEILKRGYEFGQSRVICGAHWQSDVDSGRIMGAAVVASLHNNSDFISALAKAKEEFRKK
0.7
CRC25089: Acid phosphatase (Class A), accession WP_217352265.1, SEQ ID NO:22 (protein, listed as Paraburkholderia bonniea) AGSDGFLTAETAPSSLAILPPPPAENTVAFLNDKANYEIGRSLKNDARVALAASDANCKNINAIFSSAFGREISEEKTPKLYRLLLGVLQDSHDHAMKSAKNHYMRVRPFVMYGDKTCTPEEDNKMKNTGSYPSGHASFGWAAALVLSEINPERTTEILRRGYDFGQSRVVCGAHWQSDVDNGRLMGAAVVADLHNNDKFIKALEAAKAEFKENTPGN
0.2
CRC25084: Acid phosphatase (Class A), accession WP_088823167.1, SEQ ID NO:20 (protein, listed as Acinetobacter apis) ADSNNSFLQLNQVPDSLKIVPAPPAFNSVDFLRDKAAYDQARSLVGTARWQQAAVDADLSDANIGKSFSEAFGVEISPTNTPVTYEILRKLRTDAGGYATKTAKEHYMRMRPFVFFNSHTCTPNDEASLSKNGAYPSGHTTIGWSSALILAEIRPDRQNEILERGYQYGQSRVICGVHWQSDVDAGRITGSAIVARLHADKDFAKTLEDAKREIQKKIK
0.9

We now examine a further molecule.
Prompt: Any idea what Relative activity on ATP, pH 6.5 was measured for CRC25099: Acid phosphatase (Class A), accession WP_195761705.1, SEQ ID NO:23 (protein, listed as Pantoea sp.) LQSSGFLTAETAPDSLAILPPPPAENSVTFQSDKAQYEAGHVLRNVARTELASKDADYKNFGQAFSAAFGMEISESHTPVLYHLLSEVLQDSHDFAMRGAKDHYKRVRPFVIYKDSTCTPDKDKSMSTTGSYPSGHASFGWAAALILAEINPSRETEIIRRGYDFGESRVVCGAHWQSDVENGRIMGATVVASLHANAKFAELLSQAKNEFATLSAQDSK ?
Response: 0.5
